Value source: patent US20080269258A1

- experimentalSystem: guanine riboswitch RNA (GR)
- assayText: Isothermal titration calorimetry, guanine riboswitch RNA
- Type: binding, B. subtilis
- particulars: ITC, more physiological ionic strength (0.25-1 mM Mg2+); read-out: observed Kd
- From the text: Isothermal Titration Calorimetry. RNA for isothermal titration calorimetry (ITC) (Leavitt, S. & Freire, E. Direct measurement of protein binding energetics by isothermal titration calorimetry. Curr Opin Struct Biol 11, 560-6 (2001); Pierce, M., Raman, C. S. & Nall, B. T. Isothermal titration calorimetry of protein-protein interactions. […]
reportedProperty: Kd

Entry under review: `O=c1[nH]cnc2nc[nH]c12` . Reported Kd?
3 to 4 µM

* * *

- experimentalSystem: guanine riboswitch RNA (GR)
- assayText: Isothermal titration calorimetry, guanine riboswitch RNA
- Format: binding, B. subtilis
- particulars: 0.25 mM MgCl2, 30° C.; read-out: Kd
reportedProperty: Kd (µM)
Please respond with the number in µM and leave the unit unwritten.

Which Kd is reported with guanine riboswitch RNA (GR) for this entry: `O=c1[nH]cnc2nc[nH]c12` ?
4

* * *

- experimentalSystem: guanine riboswitch RNA (GR)
- assayText: Isothermal titration calorimetry, guanine riboswitch RNA
- Format: binding, B. subtilis
- particulars: 20 mM MgCl2, 30° C.; read-out: Kd
reportedProperty: Kd (nM)
Please respond with the number in nM and leave the unit unwritten.

Entry under review: `O=c1[nH]cnc2nc[nH]c12` . Reported Kd?
732

* * *

- experimentalSystem: guanine riboswitch RNA (GR)
- assayText: Isothermal titration calorimetry, guanine riboswitch RNA
- Type: binding, B. subtilis
- particulars: 5.0 mM MgCl2, 30° C.; read-out: Kd
reportedProperty: Kd (µM)
Please respond with the number in µM and leave the unit unwritten.

Entry under review: O=c1[nH]cnc2nc[nH]c12 [Hypoxanthine] . Reported Kd?
1.34

* * *

- experimentalSystem: guanine riboswitch RNA (GR)
- assayText: Isothermal titration calorimetry, guanine riboswitch RNA
- Format: binding, B. subtilis
- particulars: 1.0 mM MgCl2, 30° C.; read-out: Kd
reportedProperty: pKd
Value format note: pKd is -log10 of concentration (mol/L); just state the number.

Which pKd is reported with guanine riboswitch RNA (GR) for this entry: `O=c1[nH]cnc2nc[nH]c12` ?
5.52

* * *

- experimentalSystem: guanine riboswitch RNA (GR)
- assayText: Isothermal titration calorimetry, guanine riboswitch RNA
- Format: binding, B. subtilis
- particulars: 50 mM K+HEPES, 100 mM KCl, 10 mM MgCl2, 30° C.; read-out: Kd
- Description: Isothermal Titration Calorimetry. RNA for isothermal titration calorimetry (ITC) (Leavitt, S. & Freire, E. Direct measurement of protein binding energetics by isothermal titration calorimetry. Curr Opin Struct Biol 11, 560-6 (2001); Pierce, M., Raman, C. S. & Nall, B. T. Isothermal titration calorimetry of protein-protein interactions. […]
# reported log10 Kd; entries follow
A value of 2 here means Kd of 100 in nM, since values are log10.

Entry under review: Nc1nc2nn[nH]c2c(=O)[nH]1 [Compound 8-Azaguanine, 8-Azaguanine] . Reported log10 Kd?
1.69

What about Nc1nc(Cl)c2nc[nH]c2n1 [6-Chloroguanine] ?
2.93

* * *

- Tested on: guanine riboswitch RNA (GR)
- assayText: Isothermal titration calorimetry, guanine riboswitch RNA
- Assay type: binding, B. subtilis
- particulars: 50 mM K+HEPES, 100 mM KCl, 10 mM MgCl2, 30° C.
- Text: Isothermal Titration Calorimetry. RNA for isothermal titration calorimetry (ITC) (Leavitt, S. & Freire, E. Direct measurement of protein binding energetics by isothermal titration calorimetry. Curr Opin Struct Biol 11, 560-6 (2001); Pierce, M., Raman, C. S. & Nall, B. T. Isothermal titration calorimetry of protein-protein interactions. […]
reportedProperty: ΔH (kcal/mol)
Please respond with the number in kcal/mol and leave the unit unwritten.

Recorded ΔH, per entry:
>>> df
             chemicalstring  observedresult
0  Nc1nc2nc[nH]c2c(=O)[nH]1           -53.5
1     COc1nc(N)nc2nc[nH]c12           -18.7
2     Nc1nc(Br)c2[nH]cnc2n1           -39.0
3         Nc1ncc2[nH]cnc2n1           -46.4
4  Nc1nc2nc[nH]c2c(=S)[nH]1           -40.6
5  Nc1nc2c(c(=O)[nH]1)CC=N2           -42.0
6     Nc1nc(Cl)c2nc[nH]c2n1           -43.6
7     O=c1[nH]cnc2nc[nH]c12           -31.3

Entry under review: `O=c1[nH]c(=O)c2[nH]cnc2[nH]1` . Reported ΔH?
-34.6

What about `Nc1nc2nn[nH]c2c(=O)[nH]1` ?
-46.9

What about `CSc1nc(N)nc2nc[nH]c12` ?
-24.5

* * *

- experimentalSystem: adenine riboswitch RNA (AR)
- assayText: Isothermal titration calorimetry, adenine riboswitch RNA
- particulars: 50 mM K+HEPES, pH 7.5, 100 mM KCl, 10 mM MgCl2, 30° C.
# reported Kd; entries follow
Please respond with the number in µM and leave the unit unwritten.

Recorded Kd, per entry:
In [3]: df
Out[3]:
                                  compound  resultunits  observedresult
0   Nc1nc(Br)c2[nH]cnc2n1 [6-Bromoguanine]           µM             2.7
1  Nc1nc(Cl)c2nc[nH]c2n1 [6-Chloroguanine]           µM           0.721
2              Nc1ncnc2nc[nH]c12 [Adenine]           µM           0.469

Entry under review: Nc1nc(F)nc2nc[nH]c12 [2-Fluoroadenine] . Reported Kd?
4.02

* * *

- Tested on: adenine riboswitch RNA (AR)
- assayText: Isothermal titration calorimetry, adenine riboswitch RNA
- Type: binding
- particulars: 50 mM K+HEPES, pH 7.5, 100 mM KCl, 10 mM MgCl2, 30° C.
Label fulfilled when ΔH is strictly below -40 kcal/mol; otherwise label not fulfilled.

>>> print(df.to_string())
          chemicalstring    answerlabel
0        Nc1cc(N)nc(N)n1  not fulfilled
1   Nc1nc(F)nc2nc[nH]c12  not fulfilled
2  Nc1nc(Br)c2[nH]cnc2n1      fulfilled
3      Cc1ncnc2nc[nH]c12  not fulfilled
4       c1ncc2[nH]cnc2n1  not fulfilled

ΔH under -40 kcal/mol? Item: `Nc1ncc2[nH]cnc2n1`
not fulfilled

What about `Nc1nc(Cl)c2nc[nH]c2n1` ?
fulfilled

What about `Nc1nc(N)c(N)c(N)n1` ?
fulfilled

What about `Nc1ncnc2nc[nH]c12` ?
not fulfilled

* * *

- Tested on: guanine riboswitch RNA (GR)
- assayText: Isothermal titration calorimetry, guanine riboswitch RNA
- Type: binding, B. subtilis
- particulars: 50 mM K+HEPES, 100 mM KCl, 10 mM MgCl2, 30° C.
- From the text: Isothermal Titration Calorimetry. RNA for isothermal titration calorimetry (ITC) (Leavitt, S. & Freire, E. Direct measurement of protein binding energetics by isothermal titration calorimetry. Curr Opin Struct Biol 11, 560-6 (2001); Pierce, M., Raman, C. S. & Nall, B. T. Isothermal titration calorimetry of protein-protein interactions. […]
reportedProperty: ΔS (cal/mol · deg)
Please respond with the number in cal/mol · deg and leave the unit unwritten.

>>> df
                                 compound           experimentalsystem  reportedproperty    resultunits  observedresult
0  Nc1nc(Br)c2[nH]cnc2n1 [6-Bromoguanine]  guanine riboswitch RNA (GR)                ΔS  cal/mol · deg            −103

Entry under review: COc1nc(N)nc2nc[nH]c12 [O-Methylguanine] . Reported ΔS?
−23.3

What about Nc1nc2nc[nH]c2c(=O)[nH]1 [Guanine] ?
−137

What about O=c1[nH]cnc2nc[nH]c12 [Hypoxanthine] ?
−75.3

What about Nc1nc2nn[nH]c2c(=O)[nH]1 [Compound 8-Azaguanine, 8-Azaguanine] ?
−121

* * *

- experimentalSystem: adenine riboswitch RNA (AR)
- assayText: Isothermal titration calorimetry, adenine riboswitch RNA
- particulars: 50 mM K+HEPES, pH 7.5, 100 mM KCl, 10 mM MgCl2, 30° C.
reportedProperty: pKd
Value format note: pKd is -log10 of concentration (mol/L); just state the number.

Recorded pKd, per entry:
In [3]: df
Out[3]:
       chemicalstring  observedresult
0   Nc1ncc2[nH]cnc2n1            6.60
1   Cc1ncnc2nc[nH]c12            4.60
2  Nc1nc(N)c(N)c(N)n1            4.60
3     Nc1cc(N)nc(N)n1            4.74
4    c1ncc2[nH]cnc2n1            3.96

We now examine a further compound.
Which pKd is reported with adenine riboswitch RNA (AR) for this entry: `Nc1nc(N)c2[nH]cnc2n1` ?
7.77
